Subject Of Test: furin, P09958
Sequence (P09958 whole entry): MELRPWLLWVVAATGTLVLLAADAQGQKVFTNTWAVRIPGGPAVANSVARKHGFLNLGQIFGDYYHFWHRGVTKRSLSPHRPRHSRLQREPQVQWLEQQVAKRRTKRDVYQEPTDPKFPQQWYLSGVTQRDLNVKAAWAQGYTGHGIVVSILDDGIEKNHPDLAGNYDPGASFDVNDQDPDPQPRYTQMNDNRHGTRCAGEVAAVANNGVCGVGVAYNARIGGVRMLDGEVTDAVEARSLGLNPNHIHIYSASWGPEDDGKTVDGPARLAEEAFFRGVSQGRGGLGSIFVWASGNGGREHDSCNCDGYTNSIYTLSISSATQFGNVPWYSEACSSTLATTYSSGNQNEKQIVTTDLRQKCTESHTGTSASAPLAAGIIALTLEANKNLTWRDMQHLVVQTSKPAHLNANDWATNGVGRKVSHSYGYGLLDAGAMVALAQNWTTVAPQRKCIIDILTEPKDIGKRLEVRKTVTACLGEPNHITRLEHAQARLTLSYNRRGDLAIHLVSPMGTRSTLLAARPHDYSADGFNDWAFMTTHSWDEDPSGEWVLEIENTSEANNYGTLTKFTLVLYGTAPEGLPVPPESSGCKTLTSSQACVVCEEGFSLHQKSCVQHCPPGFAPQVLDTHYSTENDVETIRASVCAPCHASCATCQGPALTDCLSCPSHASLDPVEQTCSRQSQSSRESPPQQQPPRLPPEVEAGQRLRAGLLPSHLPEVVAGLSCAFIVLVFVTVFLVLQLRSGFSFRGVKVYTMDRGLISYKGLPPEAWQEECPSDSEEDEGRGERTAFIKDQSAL
Experiment Summary: furin cleavage Z-score vs untreated control; higher = more cleavage, active = 3.5 or more, inactive = 1 or less, 8 variable residues between constant flanks;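 also: purified furin at 1:10 enzyme:substrate in 50 mM HEPES pH 7.5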
Experimental Context: 30 min
This is one part of the list. How many sequences the whole screen found active is unknown.
Property Name: furin cleavage Z-score
Note: the reply should be a number with no unit written.

CANTPCSAHLAGNASASA [HC2481]: 0.352
CASTYCSAHLAGNASASA [HC2509]: 2.3
CANYATGNLPAGNASASA [HC242]: -1.07
CARYPRDVRDAGNASASA [FS-2538]: 6.93
CAYRGRHRRFAGNASASA [FS-152]: 6.98

Field request: furin cleavage Z-score | item: CARKKRSVVVAGNASASA [DV4]
9.47

Can you check CAEVPCHRHSAGNASASA [HC2395] next?
1.03

Continue with CAFTPSPVVVAGNASASA [HC415]
-0.296

Now the sequence CAEVVTSTVVAGNASASA [HC2230]
-0.367

And CARVKRSVVVAGNASASA [FS-2840] ?
8.81

And then CARRWREVEEAGNASASA [FS-2803] , what is it?
0.0666

Moving on to the next sequence: CAGHGRQERSAGNASASA [FS-530]
3.39

Also CAEDRDRSELAGNASASA [HC488] ?
0.694

Consider next the sequence CAGTTRQRRSAGNASASA [FS-1458] in the same way.
7.94

Also CACGSVFLVGAGNASASA [HC301] , if possible.
-1.35
